assay: In vitro microsomal stability, mouse liver microsomes; type: in vitro ADME; details: 1 μM, 0.4 mg/mL protein
value kind: Microsomal EH (hepatic extraction ratio), mouse
Answer with a number only.

Query: Microsomal EH (hepatic extraction ratio), mouse; subject: `CCN(CCNc1cc2[nH]c(C3CC3)nc2cn1)Cc1ccc(Cl)cc1O`
0.81

Using the record for `CCN(CCNc1cc2[nH]c(-c3ccc(C(F)(F)F)nc3)nc2cn1)Cc1ccc(Cl)cc1O` , report its Microsomal EH (hepatic extraction ratio), mouse.
0.84

Reported Microsomal EH (hepatic extraction ratio), mouse for `CCN(CCNc1cc2[nH]c(C3(C)CC3)nc2cn1)Cc1ccc(Cl)cc1O` : what is it?
0.90

Using the record for `CCN(CCNc1cc2[nH]c(C3CCCC3)nc2cn1)Cc1ccc(Cl)cc1O` , report its Microsomal EH (hepatic extraction ratio), mouse.
0.88

For the molecule `CCN(CCNc1cc2[nH]c(-c3cccc(C(F)(F)F)c3)nc2cn1)Cc1ccc(Cl)cc1O` , what Microsomal EH (hepatic extraction ratio), mouse is on record?
0.81

* * *

experiment: In vitro microsomal stability, rat liver microsomes; format: in vitro ADME; conditions: 1 μM, 0.4 mg/mL protein
value kind: Microsomal EH (hepatic extraction ratio), rat
Write the value as a bare number.

CCN(CCNc1cc2[nH]c(C3CC3)nc2cn1)Cc1ccc(Cl)cc1O :: 0.73

Okay, next one:
Sample `CCN(CCNc1cc2[nH]c(C3CCCC3)nc2cn1)Cc1ccc(Cl)cc1O` — what was its Microsomal EH (hepatic extraction ratio), rat?
0.75

* * *

system: chloroquine-sensitive (NF54) strain of P. falciparum; experiment: In vitro asexual blood-stage antiplasmodium pLDH assay, NF54 strain; assay type: cell-based; settings: Plasmodium falciparum, NF54, read-out: IC50 of controls in pLDH antiplasmodium assay
value kind: IC50 (nM)
Give a bare numeral; the unit nM is implied.

Reported IC50, compound CCN(CC)CCCC(C)Nc1ccnc2cc(Cl)ccc12 (stereo not shown) [chloroquine, reference compound] : ____
12

* * *

Experiment: In vitro microsomal stability, human liver microsomes
Format: in vitro ADME
Conditions: 1 μM, 0.4 mg/mL protein
Experimental: Xenotech, Kansas, USA), suspended in 0.1 M phosphate buffer (pH 7.4). (Details of this assay are described in the Supporting Information.) page 20: fold to attain six assay concentrations of 100-0.001 μg/mL. […] The amount of formazan was ascertained by measuring the absorbance at 540 nm. […] The absorbances of plate wells were recorded at 405 nm on a SpectraMax plate reader. […] The supernatant was transferred to a fresh 96-well plate and analysed by LC-MS/MS (Agilent Rapid Resolution HPLC, AB SCIEX 4500 MS). […]
Microsomal EH (hepatic extraction ratio), human vs 0.8: at or above is t, below is f.

Would you please look over these solved cases?
CCN(CCNc1cc2[nH]c(C3(C)CC3)nc2cn1)Cc1ccc(Cl)cc1O :: f
CCN(CCNc1cc2[nH]c(-c3cccc(C(F)(F)F)c3)nc2cn1)Cc1ccc(Cl)cc1O :: t
CCN(CCNc1cc2[nH]c(C3CCCC3)nc2cn1)Cc1ccc(Cl)cc1O :: f

Next, consider the following compound.
Is Microsomal EH (hepatic extraction ratio), human for `CCN(CCNc1cc2[nH]c(C3CC3)nc2cn1)Cc1ccc(Cl)cc1O` at or above 0.8?
f

* * *

assay: Solubility; type: physicochemical; settings: pH 6.5, aqueous buffer
Record Met whenever solubility is at 100 µM or higher; record Not met when lower.

Could you verify whether the entry CCN(CCNc1cc2[nH]c(C3CCC(F)(F)CC3)nc2cn1)Cc1ccc(Cl)cc1O [Compound 12] shows solubility of no less than 100 µM?
Not met

Form field: solubility at least 100 µM? Entry: CCN(CCNc1cc2[nH]c(C3CCCN3C)nc2cn1)Cc1ccc(Cl)cc1O (centres unmarked) [Compound 13]
Met

Does the reported solubility for CCN(CCNc1cc2[nH]c(C3CCOCC3)nc2cn1)Cc1ccc(Cl)cc1O [Compound 3] fall at or above the 100 µM mark?
Met

Is it the case that CCN(CCNc1cc2[nH]c(CC3CC3)nc2cn1)Cc1ccc(Cl)cc1O [Compound 8] has solubility reaching or exceeding 100 µM?
Met

API: above_or_equal(metric=solubility, cutoff=100 µM) for item CCN(CCNc1cc2[nH]c(C3CCCC3)nc2cn1)Cc1ccc(Cl)cc1O [Compound 1]
Not met

Record CCN(CCNc1cc2[nH]c(C3CCC3)nc2cn1)Cc1ccc(Cl)cc1O [Compound 9] ; criterion: solubility no lower than 100 µM. Met?
Met

Hi, just wondering whether CCN(CCNc1cc2[nH]c([C@H]3CC[C@@H](C(F)(F)F)CC3)nc2cn1)Cc1ccc(Cl)cc1O [Compound 17] shows solubility of 100 µM or higher.
Met

Threshold query (solubility >= 100 µM) on CCN(CCNc1cc2[nH]c([C@H]3CC[C@H](C(F)(F)F)CC3)nc2cn1)Cc1ccc(Cl)cc1O [Compound 16]
Met

API: above_or_equal(metric=solubility, cutoff=100 µM) for item CCN(CCNc1cc2[nH]c(-c3cccc(C(F)(F)F)c3)nc2cn1)Cc1ccc(Cl)cc1O [Compound 14]
Not met

Decide: solubility of CCN(CCNc1cc2[nH]c(C3CCCCCC3)nc2cn1)Cc1ccc(Cl)cc1O [Compound 15] >= 100 µM?
Met

Answer whether solubility of CCN(CCNc1cc2[nH]c(C)nc2cn1)Cc1ccc(Cl)cc1O [Compound 4] is greater than or equal to 100 µM.
Met

* * *

Assay: Solubility
Assay type: physicochemical
Conditions: pH 6.5, aqueous buffer
From the text: Table 1 In Vitro Antiplasmodium Activity, Cytotoxicity, BHIA, and Solubility | column: Solubility pH 6.5, μM
The following molecules are shown together with reported solubility values.
# unit: µM | format: bare number

Recorded solubility, per entry:
CCN(CCNc1cc2[nH]c(C3CCOC3)nc2cn1)Cc1ccc(Cl)cc1O (centres unmarked) :: 125
CCN(CCNc1cc2[nH]c(C3CCC(OC)CC3)nc2cn1)Cc1ccc(Cl)cc1O (centres unmarked) :: 120

Need solubility, item `CCN(CCNc1cc2[nH]c(C3(C)CC3)nc2cn1)Cc1ccc(Cl)cc1O`
200

Sample `CCN(CCNc1cc2[nH]c(-c3ccc(C(F)(F)F)nc3)nc2cn1)Cc1ccc(Cl)cc1O` — what was its solubility?
140

For `CCN(CCNc1cc2[nH]c(C3(C(F)(F)F)CC3)nc2cn1)Cc1ccc(Cl)cc1O` , what is its reported solubility?
175

Give its solubility value. Item: `CCN(CCNc1cc2[nH]c(C3CC(F)(F)C3)nc2cn1)Cc1ccc(Cl)cc1O`
175

Value lookup for solubility; key = `CCN(CCNc1cc2[nH]c(C3CC3)nc2cn1)Cc1ccc(Cl)cc1O`
25

Can you share its solubility? I mean this molecule: `CCN(CCNc1cc2[nH]c(C3CCCCC3)nc2cn1)Cc1ccc(Cl)cc1O`
140

* * *

test: In vitro cytotoxicity MTT assay; assay type: cell-based, Chinese hamster; details: Chinese hamster, Chinese hamster ovarian (CHO) cells; MTT assay
Reported IC50 at 44 h is given for each of the following compounds.

Known results for compounds:
CCN(CCNc1cc2[nH]c(C3CC3)nc2cn1)Cc1ccc(Cl)cc1O :: 46.4 µM
CCN(CCNc1cc2[nH]c([C@H]3CC[C@@H](C(F)(F)F)CC3)nc2cn1)Cc1ccc(Cl)cc1O :: 49.1 µM
CCN(CCNc1cc2[nH]c(C3CCC(OC)CC3)nc2cn1)Cc1ccc(Cl)cc1O (stereo not shown) :: > 50 µM
CCN(CCNc1cc2[nH]c(C)nc2cn1)Cc1ccc(Cl)cc1O :: > 50 µM
CCN(CCNc1cc2[nH]c(C3CCOCC3)nc2cn1)Cc1ccc(Cl)cc1O :: > 50 µM

Quick one: IC50 at 44 h for `CCN(CCNc1cc2[nH]c(C3CC(F)(F)C3)nc2cn1)Cc1ccc(Cl)cc1O` ?
> 50 µM

Quick one: IC50 at 44 h for `CCN(CCNc1cc2[nH]c(-c3cccc(C(F)(F)F)c3)nc2cn1)Cc1ccc(Cl)cc1O` ?
37.3 µM

Any idea what IC50 at 44 h was measured for `CCN(CCNc1cc2[nH]c([C@H]3CC[C@H](C(F)(F)F)CC3)nc2cn1)Cc1ccc(Cl)cc1O` ?
> 50 µM

Any idea what its IC50 at 44 h is? The compound is `CCN(CCNc1cc2[nH]c(C3CCC3)nc2cn1)Cc1ccc(Cl)cc1O`
> 50 µM

* * *

assay: In vitro microsomal stability, rat liver microsomes; format: in vitro ADME; details: 1 μM, 0.4 mg/mL protein
// reported Microsomal EH (hepatic extraction ratio), rat for each item listed
// no unit, no text: just the number

Answered cases to consult:
CCN(CCNc1cc2[nH]c(-c3cccc(C(F)(F)F)c3)nc2cn1)Cc1ccc(Cl)cc1O :: 0.70
CCN(CCNc1cc2[nH]c(C3(C)CC3)nc2cn1)Cc1ccc(Cl)cc1O :: 0.73

Quick one: Microsomal EH (hepatic extraction ratio), rat of `CCN(CCNc1cc2[nH]c(-c3ccc(C(F)(F)F)nc3)nc2cn1)Cc1ccc(Cl)cc1O` ?
0.78
